FYI, the data here is from ChEMBL document CHEMBL3433997.

- targetUnderTest: Solute carrier family 2, facilitated glucose transporter member 1 (Homo sapiens)
- testName: ST_JUDE_LEISH: Cytotoxicity at 2uM final concentration against transgenic Leishmania Mexicana promastigotes LmGLUT1 that are glucose transport deficient and complemented with the human glucose transporter GLUT1. Activity is measured by DNA content using SYBR green in vitro
- Format: functional
Reported values of inhibition for individual entries

| compound | inhibition [%] |
| --- | --- |
| CC(=O)Nc1ccc(CN(Cc2ccc(C)cc2)Cc2cccc(Oc3ccccc3)c2)cc1 | 2.75 |
| Cc1ccccc1C1CCN(C2CCC(NC(=O)/C=C/c3ccc(OC(F)(F)F)cc3)CC2)CC1 (stereo not given) | -0.78 |
| CC1(C)CN2CCCC2c2cc(NC(=O)/C=C/c3ccccc3Cl)ccc21 (stereo not given) | 3.26 |
| CCOC(=O)N(C)/N=C/[C@H](CCc1ccccc1)NC(=O)[C@H](CC(C)C)NC(=O)c1cc2cccc(OC)c2o1 | 5.68 |
| COc1ccc(-c2nc(NC(=O)CS(=O)(=O)c3ccc(C)cc3)sc2C)cc1 | 8.39 |
| CCC(C)NC(=O)CN1CN(c2ccccc2)C2(CCN(C(=O)c3ccc4ccccc4c3)CC2)C1=O (stereo not given) | 0.98 |
| Cc1cc(N2CCCC2)nc(Nc2ccc(NC(=O)C3CCCC3)cc2)n1 | -0.76 |
| N=C(N)c1ccc(NN=Cc2ccc(Oc3ccc(C(=N)N)cc3)cc2)cc1 | 3.43 |
| Nc1nc(N)c2c(ccc3c2ccn3CCCF)n1 | 1.79 |
| COc1cc(CCNC(=O)Cc2ccc3ccccc3c2)ccc1OCc1ccccc1 | 1.9 |
